Data origin, for the record: patent US11014895B2

// reported IC50 for each item listed
# target.or.system: IDO1 enzyme in the Hela cell (Homo sapiens)
# Construct: endogenous in cells; host or cells: HeLa cells stimulated with interferon γ (100 ng/ml)
# Sequence (P14902 whole entry): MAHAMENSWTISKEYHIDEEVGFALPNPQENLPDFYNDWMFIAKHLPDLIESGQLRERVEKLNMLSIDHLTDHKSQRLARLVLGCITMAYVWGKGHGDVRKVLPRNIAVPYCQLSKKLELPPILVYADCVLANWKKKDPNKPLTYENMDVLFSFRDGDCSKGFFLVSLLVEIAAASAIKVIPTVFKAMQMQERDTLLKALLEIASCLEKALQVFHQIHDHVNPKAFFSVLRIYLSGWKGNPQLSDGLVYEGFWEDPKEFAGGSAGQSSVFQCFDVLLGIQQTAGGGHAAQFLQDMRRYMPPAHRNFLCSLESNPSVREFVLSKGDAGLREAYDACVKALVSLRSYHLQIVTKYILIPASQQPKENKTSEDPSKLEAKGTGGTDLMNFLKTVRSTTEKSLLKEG
# protocol.summary: Cell activity: interferon γ-stimulated Hela cells, absorbance of supernatant at 480 nm
# Type: cell-based
# experimental.parameters: interferon γ 100 ng/ml, 72 hours
recorded.metric: IC50

{"columns": ["compound.structure.string", "recorded.metric", "recorded.measurement"],
 "data": [
  ["COc1ccc(NC(=O)Nc2nonc2/C(=N/O)Nc2ccc(F)c(Cl)c2)cc1", "IC50", "0.1 to 1 µM"],
  ["NS(=O)(=O)N1CCN(C(=O)Nc2nonc2/C(=N/O)Nc2ccc(F)cc2)CC1", "IC50", "< 0.001 µM"],
  ["O/N=C(\\Nc1ccc(F)c(Br)c1)c1nonc1NC(=S)NC1CCCCC1", "IC50", "0.1 to 1 µM"],
  ["N=C(Nc1nonc1/C(=N/O)Nc1ccc(F)c(Br)c1)NC1CCCCC1", "IC50", "< 0.001 µM"],
  ["O=C(Nc1nonc1/C(=N/O)Nc1ccc(F)c(Br)c1)N1CCOCC1", "IC50", "0.1 to 1 µM"],
  ["O=C(NCCO)Nc1cocc1/C(=N/O)Nc1ccc(F)c(Br)c1", "IC50", "0.1 to 1 µM"],
  ["CS(=O)(=O)NCCNC(=O)Nc1nocc1/C(=N/O)Nc1ccc(F)c(Br)c1", "IC50", "< 0.001 µM"],
  ["NCCCNC(=O)Nc1nocc1/C(=N/O)Nc1ccc(F)c(Br)c1", "IC50", "< 0.001 µM"]
]}
